Recorded values, source PubChem BioAssay (NCATS).

Molecular target: Glutathione peroxidase 1 (Homo sapiens) (UniProt P07203)
Sequence (P07203 whole entry, looked up): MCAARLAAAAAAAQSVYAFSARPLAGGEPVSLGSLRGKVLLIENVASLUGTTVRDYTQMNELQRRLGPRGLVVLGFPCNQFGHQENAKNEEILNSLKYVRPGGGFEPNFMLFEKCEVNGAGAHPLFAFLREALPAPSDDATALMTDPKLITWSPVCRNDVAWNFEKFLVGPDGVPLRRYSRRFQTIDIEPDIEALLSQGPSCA
Test: Primary qHTS Assay for Inhibitors of Recombinant Selenoprotein Glutathione Peroxidase 1 (GPX1) (AID 1845191); note: nearly all actives have a fitted effect of over 65% in size
Details: recombinant GPX1, GR-coupled NADPH fluorescence, 15 min; series mostly up to 48.8 µM
Records with an inconclusive call do not appear. The source made the active and inactive calls. Calls come from the whole dose curve; as a rule, active = well fitted inhibition curve with a large enough effect; inconclusive = small, poorly fitted or top-dose-only effect; inactive = flat fitted curve, though single readings scatter.
parameter: activity, negative = inhibition

# example entries with known answers
| compound | experimentalValue |
| --- | --- |
| CC1(C)CCCC2(C)C(CO)C(CO)=CCC12 (stereo not drawn) | inactive |
| CCN(CC)c1ccc2c(O)c(C=Nc3ccc(CC(=O)O)c(-c4c5c(nc6ccccc46)CCC(C(=O)NN)C5)c3)c(=O)oc2c1 (stereo not drawn) | inactive |
| O=C(Nc1ccc(S(=O)(=O)C(F)(F)F)cc1)C1=CCN(c2ncccc2C(F)(F)F)CC1 | inactive |
| O=C(O)c1cccc(S(=O)(=O)N2CCc3ccccc3C2)c1 | inactive |
| C[C@@]1(O)[C@H](O)[C@@H](CO)O[C@H]1n1ccc(N)nc1=O | inactive |

Proceed to the following item.
Prompt: Report activity, negative = inhibition for CC(=O)O[C@@H]1c2c3c(cc(O)c2C(=O)O[C@@H]1C)O[C@@]1(C)[C@@H](O)C[C@H]2C(C)(C)C(=O)C=C[C@]2(C)[C@@H]1C3 please.
Completion: inactive

###

Test system: Zika virus NS2B-NS3 protease (unlinked complex)
Test: Primary screen GU Rhodamine qHTS for Zika virus inhibitors: Unlinked NS2B-NS3 protease assay (AID 1347159); note: nearly all actives have a fitted effect of over 60% in size
Conditions: Recombinant ZIKV NS2B-NS3 protease, Rhodamine110 substrate fluorescence; series mostly up to 107 µM
Results filed as inconclusive are left out. Activity calls are given as the source filed them. Calls come from the whole dose curve; as a rule, active = well fitted inhibition curve with a large enough effect; inconclusive = small, poorly fitted or top-dose-only effect; inactive = no such curve, though single readings can be large or run the other way.
Hello, when you answer, please use one of the following outcomes: active, inactive

| compound | category |
| --- | --- |
| Cc1cccc(S(=O)(=O)N2CCC[C@@H]2CCN2CCC(C)CC2)c1 | inactive |

Prompt: Test call for this compound, please: O=C(O)c1cc(I)ccc1NC(=O)[C@H](Cc1ccccc1)NCc1ccccc1
Completion: active

Prompt: Test call for this compound, please: CC(=O)OC1C[C@]2(C)C(O)CC(C)=C[C@H](OC(=O)c3ccc(O)cc3)C2[C@]1(O)C(C)C (some centres undefined)
Completion: inactive

###

# Z-AUC per entry
Experiment: qHTS drug screen for cell cycle checkpoint inhibitors in PARPi-resistant BRCA-mutant ovarian cancer cell lines. (AID 1963452)
Settings: PEO1/OlaR viability, CellTiter-Glo luminescence, 96 h; measured here: PEO4 Z-AUC; stronger effect = lower value
Excerpt: Women's Malignancies Branch, Center for Cancer Research (CCR), National Cancer Institute (NCI), National Institutes of Health (NIH), Bethesda, MD Poly (ADP-ribose) polymerase inhibitors (PARPis) have changed the treatment paradigm in breast cancer gene (BRCA) - mutant high-grade serous ovarian carcinoma (HGSC). […] 6; Detection; Luminescence, PHERAstar (BMG Labtech) plate reader. […] 6. Luminescence readings were taken using PHERAstar (BMG Labtech). […]
Format: numeric value only, no unit, no commentary.

# example entries with known answers
| molecule | Z-AUC |
| --- | --- |
| CCCN1CCN(c2ccc(C(=O)NC3(C(=O)NCC#N)CCCCC3)cc2)CC1 | 0.558 |
| CNC(=O)c1cc(Oc2ccc3nc(N[C@@H]4CCCC[C@H]4O)sc3c2)ccn1 | -0.476 |
| COCCOc1ccc(N2CCN(CCn3ncc4c3nc(N)n3nc(-c5ccco5)nc43)CC2)cc1 | -0.723 |
| CN[C@@H]1[C@H](O[C@H]2[C@H](O[C@@H]3[C@@H](O)[C@H](O)[C@@H](N=C(N)N)[C@H](O)[C@H]3N=C(N)N)O[C@@H](C)[C@]2(O)C=O)O[C@@H](CO)[C@H](O)[C@H]1O | 1.26 |
| CN1CCN(C2CCC(n3cc(-c4ccc(Oc5ccccc5)cc4)c4c(N)ncnc43)CC2)CC1 (stereo unspecified) | -0.439 |

Prompt: Report Z-AUC for COCCOc1cnc2ccn([C@H](C)c3nnc4c(F)cc(-c5cnn(C)c5)cn34)c(=O)c2c1 please.
Completion: 1.44

Prompt: Report Z-AUC for O=C(c1ccc(/C=C/c2n[nH]c3ccccc23)cc1)N1CCNCC1 please.
Completion: -0.438

Prompt: Report Z-AUC for COc1ccc(N(C)c2nc(C)nc3ccccc23)cc1 please.
Completion: -2.81

Prompt: Report Z-AUC for COc1cc2c(NC3CCN(CC4CCCCC4)CC3)nc(N3CCCN(C(C)C)CC3)nc2cc1OCCCN1CCCCC1 please.
Completion: -0.248

Prompt: Report Z-AUC for CC#CC(=O)N1CCC[C@H]1c1nc(-c2ccc(C(=O)Nc3ccccn3)cc2)c2c(N)nccn12 please.
Completion: 0.342

Prompt: Report Z-AUC for CO[C@H]1C[C@@H]2CC[C@@H](C)[C@@](O)(O2)C(=O)C(=O)N2CCCC[C@H]2C(=O)O[C@H]([C@H](C)C[C@@H]2CC[C@@H](OP(C)(C)=O)[C@H](OC)C2)CC(=O)[C@H](C)/C=C(\C)[C@@H](O)[C@@H](OC)C(=O)[C@H](C)C[C@H](C)/C=C/C=C/C=C/1C please.
Completion: -0.0432

Prompt: Report Z-AUC for Cc1cc(O)c(-c2ccc([C@@H](C)CN(C)C)cc2)c2c1[nH]c(=O)c1sccc12 please.
Completion: -2.02

Prompt: Report Z-AUC for C[C@H]1[C@H](O)O[C@@H]2O[C@@]3(C)CC[C@H]4[C@H](C)CC[C@@H]1[C@@]24OO3 please.
Completion: 1.02

Prompt: Report Z-AUC for COc1c(Nc2ncc(Cl)c(N[C@H]3[C@@H](C(N)=O)[C@@H]4C=C[C@H]3C4)n2)ccc2c1CC[C@@H](N1CCOCC1)CC2 please.
Completion: 0.103

Prompt: Report Z-AUC for NC[C@@](O)(c1ccc(Cl)cc1)c1ccc(-c2cn[nH]c2)cc1 please.
Completion: -1.28

Prompt: Report Z-AUC for CCN1CCN(Cc2ccc(NC(=O)c3ccc(C)c(NC(=O)c4cncc(-c5cccs5)c4)c3)cc2C(F)(F)F)CC1 please.
Completion: -0.887
